Assay: Cmax in Sprague-Dawley rat at 6 mg/kg, po by HPLC analysis
Assay type: ADME, organism-based
Set-up: dose 6 mg/kg, route oral
Details: in vivo
readout.type: Cmax
Kindly report the value followed by its unit.

*Q* So what does the record say about Cmax for COCCCCC1(CNC(=O)[C@@H]2CNC[C@H](NS(=O)(=O)c3ccc(C)cc3)C2)c2ccccc2Oc2ccccc21 ?
*A* 222 nM

* * *

Assay: Oral bioavailability in Sprague-Dawley rat at 6 mg/kg by HPLC analysis
Format: ADME, organism-based
Settings: in vivo
readout.type: bioavailability (%)
Please state the figure in %; there is no need to write the unit.

*Q* So what does the record say about bioavailability for COCCCCC1(CNC(=O)[C@@H]2CNC[C@H](NS(=O)(=O)c3ccc(C)cc3)C2)c2ccccc2Oc2ccccc21 ?
*A* 18

* * *

Experiment: Volume of distribution at steady state in Sprague-Dawley rat at 2 mg/kg, iv and 6 mg/kg, po by HPLC analysis
Assay type: ADME, organism-based
Settings: in vivo, read-out: Vdss
readout.type: Vd

*Q* So what does the record say about Vd for COCCCCC1(CNC(=O)[C@@H]2CNC[C@H](NS(=O)(=O)c3ccc(C)cc3)C2)c2ccccc2Oc2ccccc21 ?
*A* 5.3 L/kg

* * *

Target: Cathepsin D (Homo sapiens, UniProt P07339)
Sequence (P07339 65-162 limits assumed): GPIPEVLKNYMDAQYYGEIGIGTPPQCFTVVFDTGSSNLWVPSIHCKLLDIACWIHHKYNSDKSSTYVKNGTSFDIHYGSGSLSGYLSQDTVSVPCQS
Sequence (P07339 169-412 limits assumed): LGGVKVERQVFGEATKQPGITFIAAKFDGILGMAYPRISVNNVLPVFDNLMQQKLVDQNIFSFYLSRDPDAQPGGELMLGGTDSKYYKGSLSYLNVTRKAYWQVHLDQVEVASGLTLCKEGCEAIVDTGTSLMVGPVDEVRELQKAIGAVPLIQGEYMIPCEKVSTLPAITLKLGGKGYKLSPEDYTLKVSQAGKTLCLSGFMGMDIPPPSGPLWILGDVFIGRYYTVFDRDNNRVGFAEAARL
Test: Inhibition of human recombinant cathepsin D expressed in baculovirus-infected SF9 cells using fluorescence-quenched Ac-E-D(EDANS)-KPILFFRLG-K(Dabcyl)-E-Amid as substrate incubated for 1 hr prior to substrate addition measured after 1 hr by fluorescence polarization assay
readout.type: IC50

*Q* So what does the record say about IC50 for COCCCCC1(CNC(=O)[C@@H]2CNC[C@H](NS(=O)(=O)c3ccc(C)cc3)C2)c2ccccc2Oc2ccccc21 ?
*A* > 30 µM

* * *

Assay: AUC (0 to 24 hrs) in Sprague-Dawley rat at 6 mg/kg, po by HPLC analysis
Format: ADME, organism-based
Design: time < 24 hr, dose 6 mg/kg, route oral
Details: plasma
readout.type: AUC(0-t) at 24 h (µM·h)
Please state the figure in µM·h; there is no need to write the unit.

*Q* So what does the record say about AUC(0-t) at 24 h for COCCCCC1(CNC(=O)[C@@H]2CNC[C@H](NS(=O)(=O)c3ccc(C)cc3)C2)c2ccccc2Oc2ccccc21 ?
*A* 0.75

* * *

Target: Cathepsin E (Homo sapiens, UniProt P14091)
Sequence (P14091 whole entry): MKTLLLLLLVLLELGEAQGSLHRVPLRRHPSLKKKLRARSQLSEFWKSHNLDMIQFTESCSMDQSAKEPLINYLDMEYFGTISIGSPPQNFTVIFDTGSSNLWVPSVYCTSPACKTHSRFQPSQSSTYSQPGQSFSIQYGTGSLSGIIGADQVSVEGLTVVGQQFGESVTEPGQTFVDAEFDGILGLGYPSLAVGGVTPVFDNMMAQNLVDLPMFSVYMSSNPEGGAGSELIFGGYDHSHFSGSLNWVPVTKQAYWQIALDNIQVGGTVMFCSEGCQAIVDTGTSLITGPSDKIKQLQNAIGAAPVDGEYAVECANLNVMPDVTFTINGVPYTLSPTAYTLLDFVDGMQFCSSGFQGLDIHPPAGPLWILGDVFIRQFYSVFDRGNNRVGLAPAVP
Assay: Inhibition of human recombinant cathepsin E expressed in Escherichia coli using fluorescence-quenched Ac-E-D(EDANS)-KPILFFRLG-K(Dabcyl)-E-Amid as substrate incubated for 1 hr prior to substrate addition measured after 1 hr by fluorescence polarization assay
pIC50: −log10 of the molar value.
readout.type: pIC50

*Q* So what does the record say about pIC50 for COCCCCC1(CNC(=O)[C@@H]2CNC[C@H](NS(=O)(=O)c3ccc(C)cc3)C2)c2ccccc2Oc2ccccc21 ?
*A* < 4.52

* * *

Assay: Plasma clearance in Sprague-Dawley rat at 2 mg/kg, iv and 6 mg/kg, po by HPLC analysis
Assay type: ADME, organism-based
readout.type: clearance (mL/min/kg)
Please state the figure in mL/min/kg; there is no need to write the unit.

*Q* So what does the record say about clearance for COCCCCC1(CNC(=O)[C@@H]2CNC[C@H](NS(=O)(=O)c3ccc(C)cc3)C2)c2ccccc2Oc2ccccc21 ?
*A* 43.3

* * *

# IC50 values compiled below
Target: Renin (Homo sapiens)
Sequence (P00797 whole entry): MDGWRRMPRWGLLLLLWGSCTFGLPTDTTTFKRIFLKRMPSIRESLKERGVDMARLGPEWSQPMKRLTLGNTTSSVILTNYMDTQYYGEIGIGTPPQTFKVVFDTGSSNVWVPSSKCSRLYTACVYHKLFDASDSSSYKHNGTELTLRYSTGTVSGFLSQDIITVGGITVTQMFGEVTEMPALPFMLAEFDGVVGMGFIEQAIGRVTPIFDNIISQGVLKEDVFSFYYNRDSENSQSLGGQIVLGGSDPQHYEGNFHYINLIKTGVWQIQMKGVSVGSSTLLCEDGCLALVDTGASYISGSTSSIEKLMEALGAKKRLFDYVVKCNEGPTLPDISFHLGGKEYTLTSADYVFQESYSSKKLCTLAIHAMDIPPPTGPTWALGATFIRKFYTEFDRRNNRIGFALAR
Experiment: Inhibition of human recombinant renin using fluorescence-quenched (RE(EDANS)IHPFHLVIHTK(Dabcyl)R as substrate incubated for 1 hr prior to substrate addition measured after 1 hr by fluorescence polarization assay
Please state the figure in nM; there is no need to write the unit.

Some solved cases for reference:
molecule: COCCCCC1(CNC(=O)[C@H]2CNC[C@@H](NS(=O)(=O)c3ccc(C)cc3)C2)c2ccccc2Oc2ccccc21
value.measured: 500

molecule: Cc1ccc(S(=O)(=O)N[C@H]2CNC[C@@H](C(=O)NCC3c4ccccc4Oc4ccccc43)C2)cc1 (racemic)
value.measured: 90

molecule: COCCCCC1(CNC(=O)[C@@H]2CNC[C@H](NS(=O)(=O)c3ccc(C)cc3)C2)c2ccccc2Oc2ccccc21
value.measured: 3

molecule: Cc1ccc(S(=O)(=O)N[C@H]2CNC[C@@H](C(=O)NCC(c3ccccc3)c3ccccc3)C2)cc1 (racemic)
value.measured: 1200

molecule: COCCCCC1(CNC(=O)C2CCCNC2)c2ccccc2Oc2ccccc21 (racemic)
value.measured: 4000

*Q* So what does the record say about IC50 for Cc1ccc(S(=O)(=O)N[C@H]2CNC[C@@H](C(=O)NCC(c3ccccc3)c3ccccc3)C2)cc1 ?
*A* 500

*Q* // same read-out, input: COCCCCC1(CNC(=O)[C@@H]2CNC[C@H](NS(=O)(=O)c3ccc(C)cc3)C2)c2ccccc2Oc2ccccc21 (racemic)
*A* 4

* * *

Molecular target: Beta-secretase 1 (Homo sapiens, UniProt P56817)
Sequence (P56817 whole entry): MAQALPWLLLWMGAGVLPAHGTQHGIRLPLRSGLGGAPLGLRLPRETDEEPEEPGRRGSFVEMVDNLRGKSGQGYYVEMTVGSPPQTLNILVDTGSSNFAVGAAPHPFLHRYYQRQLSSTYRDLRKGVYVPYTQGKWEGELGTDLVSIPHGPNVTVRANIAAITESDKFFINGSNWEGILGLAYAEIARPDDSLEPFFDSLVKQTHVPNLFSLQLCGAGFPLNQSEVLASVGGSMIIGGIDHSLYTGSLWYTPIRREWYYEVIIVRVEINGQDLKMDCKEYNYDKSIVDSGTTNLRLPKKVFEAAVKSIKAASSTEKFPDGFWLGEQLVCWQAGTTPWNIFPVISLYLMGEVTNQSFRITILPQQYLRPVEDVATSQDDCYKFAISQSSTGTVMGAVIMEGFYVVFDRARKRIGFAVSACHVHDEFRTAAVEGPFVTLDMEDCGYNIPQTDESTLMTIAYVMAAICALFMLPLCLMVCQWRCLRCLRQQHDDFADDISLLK
Test: Inhibition of human recombinant BACE1 expressed in baculovirus-infected SF9 cells using fluorescence-quenched RE(EDANS)-EVNLDAEF-K(DABSYL)-R as substrate incubated for 1 hr prior to substrate addition measured after 1 hr by fluorescence polarization assay
readout.type: IC50

*Q* So what does the record say about IC50 for COCCCCC1(CNC(=O)[C@@H]2CNC[C@H](NS(=O)(=O)c3ccc(C)cc3)C2)c2ccccc2Oc2ccccc21 ?
*A* > 30 µM

* * *

Molecular target: Beta-secretase 2 (Homo sapiens)
Sequence (Q9Y5Z0 whole entry): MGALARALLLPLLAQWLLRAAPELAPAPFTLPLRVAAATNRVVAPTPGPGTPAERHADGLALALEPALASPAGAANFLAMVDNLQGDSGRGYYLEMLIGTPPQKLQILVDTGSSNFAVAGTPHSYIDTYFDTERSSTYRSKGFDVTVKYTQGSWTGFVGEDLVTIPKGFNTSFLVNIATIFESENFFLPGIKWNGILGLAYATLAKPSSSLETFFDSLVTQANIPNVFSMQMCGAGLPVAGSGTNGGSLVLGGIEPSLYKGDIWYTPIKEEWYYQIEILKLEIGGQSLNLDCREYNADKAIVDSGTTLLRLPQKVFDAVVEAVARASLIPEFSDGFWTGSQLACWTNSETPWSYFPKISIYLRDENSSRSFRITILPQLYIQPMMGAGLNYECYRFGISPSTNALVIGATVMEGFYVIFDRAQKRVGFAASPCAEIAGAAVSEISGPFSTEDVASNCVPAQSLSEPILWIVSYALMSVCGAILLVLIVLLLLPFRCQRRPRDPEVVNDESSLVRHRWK
Assay: Inhibition of human recombinant BACE2 expressed in baculovirus-infected SF9 cells using fluorescence-quenched RE(EDANS)-EVNLDAEF-K(DABSYL)-R as substrate incubated for 1 hr prior to substrate addition measured after 1 hr by fluorescence polarization assay
pIC50: −log10 of the molar value.
readout.type: pIC50

*Q* So what does the record say about pIC50 for COCCCCC1(CNC(=O)[C@@H]2CNC[C@H](NS(=O)(=O)c3ccc(C)cc3)C2)c2ccccc2Oc2ccccc21 ?
*A* < 4.52

* * *

Biological target: Renin (Homo sapiens)
Experiment: Binding affinity to human recombinant renin by NMR titration analysis
# Kd values compiled below

compound: CC(O)CN1CC2c3ccccc3Nc3ccccc3C2C1 (racemic)
readout.type: Kd
value.measured: > 500 µM

*Q* So what does the record say about Kd for OC(CC1c2ccccc2Sc2ccccc21)CN1CCCC1 (racemic) ?
*A* > 500 µM

* * *

Target: Renin (Homo sapiens, UniProt P00797)
Sequence (P00797 whole entry): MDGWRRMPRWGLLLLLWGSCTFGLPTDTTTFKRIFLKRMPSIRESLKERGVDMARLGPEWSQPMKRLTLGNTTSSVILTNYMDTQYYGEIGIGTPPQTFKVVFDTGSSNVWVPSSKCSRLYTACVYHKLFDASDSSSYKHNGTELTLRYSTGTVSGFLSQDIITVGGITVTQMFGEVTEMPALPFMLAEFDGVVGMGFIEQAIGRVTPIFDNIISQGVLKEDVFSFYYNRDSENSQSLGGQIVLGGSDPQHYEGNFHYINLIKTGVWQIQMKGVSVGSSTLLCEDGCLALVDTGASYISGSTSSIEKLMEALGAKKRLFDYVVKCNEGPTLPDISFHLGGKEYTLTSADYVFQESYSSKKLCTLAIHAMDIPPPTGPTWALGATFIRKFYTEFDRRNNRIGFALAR
Assay: Inhibition of human recombinant renin using fluorescence-quenched (RE(EDANS)IHPFHLVIHTK(Dabcyl)R as substrate incubated for 1 hr prior to substrate addition measured after 1 hr by fluorescence polarization assay
# IC50 values compiled below

compound: Cc1ccc(S(=O)(=O)N[C@@H]2CNC[C@H](C(=O)NCC(c3ccccc3)c3ccccc3)C2)cc1
IC50: > 30 µM
--
compound: CC(O)CN1CC2c3ccccc3Nc3ccccc3C2C1 (racemic)
IC50: > 100 µM

# next compound below
*Q* So what does the record say about IC50 for OC(CC1c2ccccc2Sc2ccccc21)CN1CCCC1 (racemic) ?
*A* > 100 µM
